- tested.target: Recombinant IKKα (Homo sapiens)
- Construct: purchased Millipore, Dundee, UK
- assay.info: DELFIA IKKα kinase assay (apparent Ki, Cheng-Prusoff)
- Assay type: biochemical
- reported.conditions: DELFIA assay (first line of an example)
Note to self: use true (1) only for Ki readings below 50 nM; a reading exactly at 50 nM still gets false (0).

Please determine if `CN1CCCN(Cc2cc3c(-c4ccc5[nH]nc(N)c5c4)ccnc3[nH]2)CC1` is below 50 nM in terms of Ki.
true (1)

---

- tested.target: Recombinant IKKα (Homo sapiens, UniProt O15111)
- Construct: purchased Millipore, Dundee, UK
- Sequence (O15111 1-745): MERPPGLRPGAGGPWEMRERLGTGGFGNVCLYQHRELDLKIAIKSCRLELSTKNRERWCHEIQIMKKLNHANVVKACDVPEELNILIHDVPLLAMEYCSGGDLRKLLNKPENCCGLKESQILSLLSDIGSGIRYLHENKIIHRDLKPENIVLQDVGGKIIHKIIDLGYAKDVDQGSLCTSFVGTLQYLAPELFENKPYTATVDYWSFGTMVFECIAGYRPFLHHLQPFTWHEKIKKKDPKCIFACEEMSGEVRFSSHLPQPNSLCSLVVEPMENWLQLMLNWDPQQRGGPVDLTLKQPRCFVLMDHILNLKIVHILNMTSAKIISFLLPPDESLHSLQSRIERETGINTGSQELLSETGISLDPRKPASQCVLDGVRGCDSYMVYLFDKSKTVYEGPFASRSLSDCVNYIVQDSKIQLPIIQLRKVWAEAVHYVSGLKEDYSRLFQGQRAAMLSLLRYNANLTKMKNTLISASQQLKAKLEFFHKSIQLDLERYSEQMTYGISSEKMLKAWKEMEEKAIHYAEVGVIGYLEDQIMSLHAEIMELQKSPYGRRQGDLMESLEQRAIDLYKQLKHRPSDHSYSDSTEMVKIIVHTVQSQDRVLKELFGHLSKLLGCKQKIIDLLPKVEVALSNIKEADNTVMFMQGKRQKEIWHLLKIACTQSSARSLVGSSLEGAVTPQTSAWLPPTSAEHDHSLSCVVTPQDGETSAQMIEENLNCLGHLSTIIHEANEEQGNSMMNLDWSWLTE
- assay.info: DELFIA IKKα kinase assay (apparent Ki, Cheng-Prusoff)
- Format: biochemical
- reported.conditions: DELFIA assay (first line of an example)
pKi: −log10 of the molar value.
Would you mind labelling by pKi? At or over 8 is Condition met, under is Condition not met.

Some entries whose results are on file:
{"columns": ["compound.structure.string", "group"],
 "data": [
  ["CCC(O)(CC)c1cc2c(-c3ccc4[nH]nc(N)c4c3)ccnc2[nH]1", "Condition not met"],
  ["Nc1n[nH]c2c(Cl)cc(-c3ccnc4[nH]c(CC5CCCCC5)cc34)cc12", "Condition not met"],
  ["Nc1n[nH]c2c(C#CC3(O)CCCCCC3)cc(-c3ccnc4[nH]ccc34)cc12", "Condition not met"],
  ["Cc1n[nH]cc1Nc1cc(-c2cc(C#CC(C)(C)C)c3[nH]nc(N)c3c2)ccn1", "Condition not met"],
  ["Nc1n[nH]c2ccc(-c3ccnc4[nH]c(C(=O)NCCc5ccccc5)cc34)cc12", "Condition not met"]
]}

Okay, now this compound:
Check if pKi >= 8 (inclusive). Item: `Nc1n[nH]c2ccc(-c3ccnc4[nH]c(CNc5ccccc5COc5ccccc5)cc34)cc12`
Condition met
